Each record here notes measured kon.
Biological target: T1, recombinant human PAD4 (human, UniProt Q9UM07 1-663)
T1 construct: also called rhPAD4; hPAD4
T1 sequence (Q9UM07 whole entry): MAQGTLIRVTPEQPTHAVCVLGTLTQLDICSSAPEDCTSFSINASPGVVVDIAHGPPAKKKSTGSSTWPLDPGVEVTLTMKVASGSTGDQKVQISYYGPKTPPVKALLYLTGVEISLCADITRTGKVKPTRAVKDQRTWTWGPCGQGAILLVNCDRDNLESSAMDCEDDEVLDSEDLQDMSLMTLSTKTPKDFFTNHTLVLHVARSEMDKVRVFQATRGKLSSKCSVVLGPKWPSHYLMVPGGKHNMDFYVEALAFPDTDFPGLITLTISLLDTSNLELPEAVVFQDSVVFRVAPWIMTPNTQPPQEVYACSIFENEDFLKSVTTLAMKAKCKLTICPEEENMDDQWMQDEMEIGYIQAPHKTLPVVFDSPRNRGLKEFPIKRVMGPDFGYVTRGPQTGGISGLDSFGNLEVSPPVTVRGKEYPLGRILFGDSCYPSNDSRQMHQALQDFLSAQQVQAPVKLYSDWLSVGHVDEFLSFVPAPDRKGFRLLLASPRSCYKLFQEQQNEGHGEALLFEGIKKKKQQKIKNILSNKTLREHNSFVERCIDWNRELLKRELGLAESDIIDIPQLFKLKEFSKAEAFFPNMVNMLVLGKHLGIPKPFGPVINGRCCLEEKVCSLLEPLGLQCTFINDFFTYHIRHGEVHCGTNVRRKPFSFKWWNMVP
Experiment: SPR 37 C, captured antibody, PAD4 analyte, 1 mM CaCl2
// note: answer is a bare numeric in M⁻¹ s⁻¹

Known kon results, listed for orientation:
{"binder": "hz20-4 (antibody, V domains shown, light constant region not tied to this antibody) VH: QVQLVQSGAEVKKPGASVKVSCKASGYTFTNYGISWVRQAPGQGLEWMGEIYPRSGNTYHNEKFKDRVTMTADTSTSTVYMELSSLRSEDTAVYYCARSMITTRYWYFDVWGKGTTVTVSS VL: DIVMTQSPDSLAVSLGERATINCRASESVDTYGNSFMHWYQQKPGQPPKLLIYLASNLESGVPDRFSGSGSGTDFTLTISSLQAEDVAVYYCQQNNEDPLTFGAGTKLELK", "kon, M⁻¹ s⁻¹": 270000}
{"binder": "hz13-3 (antibody, V domains shown, light constant region not tied to this antibody) VH: EVQLVQSGAEVKKPGASVKVSCTSSDFNIKDHFIHWVRQAPGKGLEWMGRIDPEDDETKYAPKFQDRVTMTADTSTDTAYMELSSLRSEDTAVYYCAGYGNYEGAMDYWGQGTLVTVSS VL: DIVMTQSPSSLSASVGDRVTLTCRASENVNNYGIGFMNWFQQKPGKAPKLLIYAASRRGSGVPSRFSGSGSGTDFTLTISSMQPEDFATYFCQQSKEVPYTFGQGTKLEIK", "kon, M⁻¹ s⁻¹": "1.5e+06"}
{"binder": "hz13-6 (antibody, V domains shown, light constant region not tied to this antibody) VH: EVLLVQSGAEVKKPGASVKLSCTSSDFNIKDHFIHWVRQAPGKGLEWMGRIDPEDDETKYAPKFQDRVTMTADTSTDTAYMELSSLRSEDTAVFYCAGYGNYEGAMDYWGQGTLVTVSS VL: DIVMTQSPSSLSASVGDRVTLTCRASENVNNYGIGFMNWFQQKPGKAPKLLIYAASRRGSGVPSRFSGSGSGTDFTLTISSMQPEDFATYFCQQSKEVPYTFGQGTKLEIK", "kon, M⁻¹ s⁻¹": "1.6e+06"}
{"binder": "hz13-12 (antibody, IgG1, V domains shown, also called clone 13-based hz13-12 antibody) VH: EVQLVQSGAEVKKPGATVKISCTSSDFNIKDHFIHWVQQAPGKGLEWMGRIDPEDDETKYAPKFQDRVTITADTSTDTAYMELSSLRSEDTAVYYCAGYGNYEGAMDYWGQGTTVTVSS VL: DVVMTQSPLSLPVTLGQPASISCRASENVNNYGIGFMNWFQQRPGQSPRLLIYAASRRGSGVPDRFSGSGSGTDFTLKISRVEEEDVGVYYCQQSKEVPYTFGGGTKVEIK", "kon, M⁻¹ s⁻¹": "3.1e+06"}

# input for lookup
[ask] I am curious: what kon value has been reported for hz20-2 (antibody, IgG1, V domains shown, also called clone 20-based hz20-2 antibody) VH: QVQLVQSGAEVKKPGASVKVSCKASGYTFTNYGISWVRQAPGQGLEWMGEIYPRSGNTYHNEKFKDRVTMTTDTSTSTAYMELRSLRSDDTAVYYCARSMITTRYWYFDVWGQGTLVTVSS VL: DIQMTQSPSSLSASVGDRVTITCRASESVDTYGNSFMHWYQQKPGKAPKLLIYLASNLESGVPSRFSGSGSGTDFTLTISSLQPEDFATYYCQQNNEDPLTFGQGTKVEIK ?
[reply] 290000
